- Measurement Target: NEK2 (human)
- Procedure Summary: KINOMEscan competition binding
- Test Settings: compound 10.0 µM
Measurement Label: kinase still bound, per cent of control (%)
Answers are plain numbers, in %.

Reference set, count: 2
[ask] Quick one: kinase still bound, per cent of control of "C=CC(=O)Nc1ccc(CN(C(=O)Nc2c(Cl)c(OC)cc(OC)c2Cl)c2cc(Nc3ccc(N4CCN(C)CC4)cc3)ncn2)cc1" ?
[reply] 100

[ask] Now try "CS(=O)(=O)N1CCN(Cc2cc3nc(-c4cccc5[nH]ncc45)nc(N4CCOCC4)c3s2)CC1" .
[reply] 100

Okay, now this compound:
[ask] Any idea what its kinase still bound, per cent of control is? The compound is "O=C1NC(=O)/C(=C/c2ccc3nccc(-c4ccncc4)c3c2)S1"
[reply] 64
